Value source: patent US20240150440A1

Listing: pEC50 of selected binders
Molecular target: T1, SARS-CoV-2 Beta Variant RBD (SARS-CoV-2 Beta variant)
T1 construct: domain: RBD; coated on ELISA plates
Assay: ELISA, RBD coated
The value called pEC50 is obtained by taking minus log10 of the concentration in mol/L.

binder: PP900 MBP-5HVZ-R5a-F2-H6 (VHH, Form: Dimer) VHH: QVQLVESGGGLVQPGGSLRLSCAASGSISSIEAMSWFRQAPGKQREGVATMASGGDTSYADSVKGRFTISRDNAKNTVYLQMNSLKPEDTAVYYCAAQTYRPDTWGRYTFWGQGTQVTVSS
pEC50: 6.15

binder: PP1113 MBP-5HVZ-PAPA-RN-29-H6 (VHH, Form: Dimer) VHH: QVQLVESGGGLVQPGGSLRLSCAASGYILSENLTAWFRQAPGKAREVVATVTSGDYTNYDDSVKGRFTISRDNAKNTVYLQMNSLKPEDTAVYYCAAGTSDWEVKWSHWGQGTQVTVSS
pEC50: 8.25

binder: PP1145 MBP-5HVZ-PAPA-R2d-A6-H6 (VHH, Form: Dimer) VHH: QVQLVESGGGLVQPGGSLRLSCAASGSGASIGAMHWFRQAPGKGREWVASITSAGNTYYGDSVKGRFTISRDNAKNTVYLQMNSLKPEDTAVYYCNALAGANYESQWEEYNYWGQGTQVTVSS
pEC50: 7.51

// moving on: another record for pEC50
Query: Which pEC50 value is on record for PP1111 MBP-5HVZ-PAPA-RN-27-H6 (VHH, Form: Dimer) VHH: QVQLVESGGGLVQPGGSLRLSCAASGPQFSSNAVSWFRQAPGKEREWVAGITSGGSTDYADSVKGRFTISRDNAKNTVYLQMNSLKPEDTAVYYCTAPSVSDADRRTRDYWGQGTQVTVSS ?
Response: 8.80
